So I've got a bunch of molecules here, and I need their Actual effective value values.
# Tested on: Sclerotinia sclerotiorum
# protocol_details: Controlling test against Sclerotinia sclerotiorum on cucumber by foliage spraying (Test Example 1)
# Type: in vivo
# details: single compound, 0.2 ppm, 12° C., high humidity, 6 days
Numbers only, in %.

CNC(=O)C(OC)c1ccccc1COc1cc(C)ccc1C (racemic)	4
CNC(=O)[C@H](OC)c1ccccc1COc1cc(C)ccc1C	14
COC(=O)N(OC)c1ccccc1COc1ccn(-c2ccc(Cl)cc2)n1 [Compound VI, reference compound]	29
CO/C=C(/C(=O)OC)c1ccccc1Oc1cc(Oc2ccccc2C#N)ncn1 [Compound V, reference compound]	10

Parameter requested: Actual effective value. Apply to each item below.
1. CO/N=C(/C(=O)OC)c1ccccc1CO/N=C(\C)c1cccc(C(F)(F)F)c1 [Compound IV, reference compound]
2. CNC(=O)/C(=N/OC)c1ccccc1COc1cc(C)ccc1C [Compound III, reference compound]

28
9
